target or test system: h9C12 I253A (mouse | human)
assay notes: SPR
recorded endpoint: Kd (nM)

                                  substance  recorded_endpoint  units  reading
0  Recombinant human TRIM21 PRYSPRY (from UniProt P19474 287-465) (domain or fragment)                 Kd     nM      565

###

target or test system: h9C12 P329A (mouse | human)
assay notes: SPR
recorded endpoint: Kd (nM)

>>> print(df.to_string())
                                  substance  recorded_endpoint  units  reading
0  Recombinant human TRIM21 PRYSPRY (from UniProt P19474 287-465) (domain or fragment)                 Kd     nM      220

###

target or test system: h9C12 H435A (mouse | human)
assay notes: SPR
recorded endpoint: Kd (µM)

In [3]: df
Out[3]:
                                  substance  recorded_endpoint  reading
0  Recombinant human TRIM21 PRYSPRY (from UniProt P19474 287-465) (domain or fragment)                 Kd     5.53

###

target or test system: h9C12 N434A (mouse | human)
assay notes: SPR
recorded endpoint: Kd (µM)

>>> print(df.to_string())
                                  substance  recorded_endpoint  reading
0  Recombinant human TRIM21 PRYSPRY (from UniProt P19474 287-465) (domain or fragment)                 Kd        2

###

target or test system: h9C12 H310A (mouse | human)
assay notes: SPR
pKd: −log10 of the molar value.
recorded endpoint: pKd

In [3]: df
Out[3]:
                                  substance  recorded_endpoint  reading
0  Recombinant human TRIM21 PRYSPRY (from UniProt P19474 287-465) (domain or fragment)                pKd     6.58

###

target or test system: h9C12 N434D (mouse | human)
assay notes: SPR
recorded endpoint: Kd (µM)

In [3]: df
Out[3]:
                                  substance  reading
0  Recombinant human TRIM21 PRYSPRY (from UniProt P19474 287-465) (domain or fragment)      4.5

###

target or test system: humanized 9C12 (h9C12), wild type, human IgG1/kappa (mouse | human)
assay notes: SPR
recorded endpoint: Kd (nM)

In [3]: df
Out[3]:
                                  substance  recorded_endpoint  reading
0  Recombinant human TRIM21 PRYSPRY (from UniProt P19474 287-465) (domain or fragment)                 Kd      212
